Melanocortin receptor 4 (Homo sapiens) pKi, compiled from various sources.
Sequence (P32245 whole entry): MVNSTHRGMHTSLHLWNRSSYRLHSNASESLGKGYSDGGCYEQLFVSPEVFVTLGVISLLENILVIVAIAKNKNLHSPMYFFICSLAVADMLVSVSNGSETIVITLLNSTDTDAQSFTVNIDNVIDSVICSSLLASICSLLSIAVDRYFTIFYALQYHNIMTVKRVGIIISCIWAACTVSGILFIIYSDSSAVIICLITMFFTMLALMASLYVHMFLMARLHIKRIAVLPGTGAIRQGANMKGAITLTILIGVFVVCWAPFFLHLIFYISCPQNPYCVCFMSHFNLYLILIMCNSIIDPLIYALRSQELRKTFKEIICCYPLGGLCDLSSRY
pKi: −log10 of the molar value.

MOLECULE: CC(C)C[C@H](N)c1cc(C(F)(F)F)ccc1N1CCN(C(=O)[C@@H]2CN(S(C)(=O)=O)C[C@H]2c2ccc(Cl)cc2)CC1
SIGN QUALIFIER: =
pKi: 7.02
//
MOLECULE: CCN(CC)C1CCc2cccc(N3CCN(C(=O)[C@@H](Cc4ccc(Cl)cc4)NC(=O)[C@H]4Cc5ccccc5CN4)CC3)c2C1 (stereo partly specified)
SIGN QUALIFIER: =
pKi: 6.77
//
MOLECULE: N[C@H](Cc1ccc(Cl)cc1)C(=O)N1CCC(Cn2cncn2)(C2CCCCC2)CC1
SIGN QUALIFIER: =
pKi: 7.64
//
MOLECULE: COc1ccccc1CCC(=O)N1CCN(c2ccc(C(F)(F)F)cc2[C@@H](N)CC(C)C)CC1
SIGN QUALIFIER: =
pKi: 5.85
//
MOLECULE: CC(C)C[C@@H](N)c1cccnc1N1CCN(C(=O)C(C)Cc2ccc(Cl)cc2Cl)CC1 (stereo partly specified)
SIGN QUALIFIER: =
pKi: 7.44
//
MOLECULE: CC(C)CC(O)c1ccccc1N1CCN(C(=O)[C@@H](Cc2ccc(Cl)cc2Cl)NC(=O)C(C)(C)N)CC1 (stereo partly specified)
SIGN QUALIFIER: =
pKi: 7.34
//
MOLECULE: Cc1ccc(N2CCN(C(=O)[C@@H]3CN(C(=O)CCc4ccccc4)C[C@H]3c3ccc(Cl)cc3)CC2)c([C@@H](N)C(C)C)c1
SIGN QUALIFIER: =
pKi: 7.12
//
MOLECULE: CC(C)S(=O)(=O)N1CCc2cccc(N3CCN(C(=O)[C@@H](Cc4ccc(Cl)cc4)NC(=O)[C@H]4Cc5ccccc5CN4)CC3)c2C1
SIGN QUALIFIER: =
pKi: 6.02
//
MOLECULE: N=C(N)NCCC[C@@H]1NC(=O)[C@@H](Cc2ccccc2)NC(=O)[C@H](Cc2c[nH]cn2)NC(=O)CCCCCCNC(=O)[C@H](Cc2c[nH]c3ccccc23)NC1=O
SIGN QUALIFIER: =
pKi: 6.61
//
MOLECULE: CCCCN(CCCC)[C@H](Cc1ccc(Cl)cc1Cl)C(=O)N1CCN(c2ccccc2C(=O)CC(C)C)CC1
SIGN QUALIFIER: =
pKi: 5.77
//
MOLECULE: CC(C)C[C@H](N)c1cc(C(F)(F)F)ccc1N1CCN(C(=O)CCC(N)=O)CC1
SIGN QUALIFIER: <
pKi: 5.00
//
MOLECULE: COc1ccc(CN(C)CC2(N3CCN(C(=O)[C@H]4CN(C(C)C)C[C@@H]4c4ccc(Cl)cc4)CC3)CCCCC2)cc1
SIGN QUALIFIER: =
pKi: 6.96
//
MOLECULE: O=C(N[C@H](Cc1ccc(Cl)cc1)C(=O)N1CCN(C2CCCCC2Cn2cncn2)CC1)C1Cc2ccccc2CN1 (stereo partly specified)
SIGN QUALIFIER: =
pKi: 6.41
//
MOLECULE: NC(N)=NCCC[C@H]1C[C@@H](OCc2ccc3ccccc3c2)CN1C(=O)[C@@H](Cc1ccccc1)NC(=O)[C@@H]1CCCCN1
SIGN QUALIFIER: =
pKi: 7.51
//
MOLECULE: COc1cc([C@@H](C)C(=O)N2CC[C@@]3(CCc4cc(-c5nc6ccccn6n5)c(C)nc4N3)C2)c(Cl)cn1
SIGN QUALIFIER: =
pKi: 9.55
//
MOLECULE: O=C(N[C@H](Cc1ccc(Cl)cc1)C(=O)N1CCN(c2ccccc2CNC2CC2)CC1)[C@H]1Cc2ccccc2CN1
SIGN QUALIFIER: =
pKi: 7.05
//
MOLECULE: CN(CCO)Cc1ccccc1N1CCN(C(=O)[C@@H](Cc2ccc(Cl)cc2)NC(=O)[C@H]2Cc3ccccc3CN2)CC1
SIGN QUALIFIER: =
pKi: 7.26
//
MOLECULE: Cc1ccc(N2CCN(C(=O)[C@@H]3CN(C4CCOCC4)C[C@H]3c3ccc(Cl)cc3)CC2)c([C@@H](NC(=O)[C@@H](C)N)C(C)C)c1
SIGN QUALIFIER: =
pKi: 8.14
//
MOLECULE: Cc1ccc(N2CCN(C(=O)C3NCCC3c3ccc(Cl)cc3)CC2)c([C@@H](N)C(C)C)c1 (stereo partly specified)
SIGN QUALIFIER: =
pKi: 7.25
//
MOLECULE: Cc1ccc(N2CCN(C(=O)[C@H]3CN(C4CCOCC4)C[C@@H]3c3ccc(Cl)cc3)CC2)c([C@@H](NC(=O)CCN(C)C)C(C)C)c1
SIGN QUALIFIER: =
pKi: 8.33
//
MOLECULE: CC(C)CC(N)c1ccccc1N1CCN(C(=O)[C@@H](Cc2ccc(Cl)cc2Cl)NC(C)C)CC1 (stereo partly specified)
SIGN QUALIFIER: =
pKi: 7.28
//
MOLECULE: CC(=O)N1CC[C@H](c2ccc(Cl)cc2)[C@H]1C(=O)N1CCN(c2ccc(C)cc2[C@@H](N)C(C)C)CC1
SIGN QUALIFIER: =
pKi: 7.11
//
MOLECULE: CC(=O)N[C@H](Cc1ccc(Cl)cc1Cl)C(=O)N1CCN(c2ncccc2CNCCc2cccs2)CC1
SIGN QUALIFIER: =
pKi: 7.68
//
MOLECULE: Cc1ccc(N2CCN(C(=O)[C@H](C)Cc3ccc(Cl)cc3F)CC2)c([C@@H](N)CC(C)C)c1
SIGN QUALIFIER: =
pKi: 7.70
//
MOLECULE: CC(C)C[C@H](N)c1ccccc1N1CCN(C(=O)[C@H](C)Cc2ccc(Cl)cc2Cl)CC1
SIGN QUALIFIER: =
pKi: 7.80
//
MOLECULE: CCCC(=O)N[C@H](Cc1ccc(Cl)cc1)C(=O)N1CCN(C2(CNC(=O)Cc3ccccc3)CCCCC2)CC1
SIGN QUALIFIER: =
pKi: 6.68
//
MOLECULE: CCn1ccnc1-c1cccc(Cl)c1CCc1cc(Br)ccc1OC
SIGN QUALIFIER: =
pKi: 6.51
//
MOLECULE: O=C(Cc1ccccc1)NCC1(N2CCN(C(=O)[C@@H](Cc3ccc(Cl)cc3)NC(=O)c3cnc4ccccc4c3)CC2)CCCCC1
SIGN QUALIFIER: =
pKi: 7.21
//
MOLECULE: O=C([C@H]1CN(C2CCCCC2)C[C@@H]1c1ccc(Cl)cc1)N1CCN(C2(CNCc3ccccc3)CCCCC2)CC1
SIGN QUALIFIER: =
pKi: 8.26
//
MOLECULE: N=C(N)NCCC[C@@H]1NC(=O)[C@@H](Cc2ccc3ccccc3c2)NC(=O)[C@H](Cc2cnc[nH]2)NC(=O)c2ccccc2C(=O)NCCCC[C@@H](C(N)=O)NC(=O)[C@H](Cc2c[nH]c3ccccc23)NC1=O
SIGN QUALIFIER: =
pKi: 7.24
//
MOLECULE: CC(C)[C@H](N)c1cccc(F)c1N1CCN(C(=O)[C@@H]2CN(C(=O)C(C)(C)C)C[C@H]2c2ccc(Cl)cc2)CC1
SIGN QUALIFIER: =
pKi: 6.27
